Answer each item with its documented IC50.
Counter-ions that a name gives are not always drawn.
Your answer is read as nM, so omit the unit and give the number.

Item O=C(N1CC2CC1(C(=O)NCc1cc(Cl)ccc1-n1cnnn1)C2)C1(O)CCOc2ccccc21 (racemic) [Example 64] ; assay system Human α-thrombin (Homo sapiens); IC50 reported as 40

// assay Human α-thrombin (Homo sapiens), entry NC(C(=O)N1C[C@@H]2C[C@@H]2[C@H]1C(=O)NCc1cc(Cl)ccc1-n1cnnn1)c1ccccc1F (some centres unmarked) [Example 74] , IC50 value = 29

Reported IC50 (Human α-thrombin (Homo sapiens)) for entry O=C(NCc1cc(F)ccc1-n1cnnn1)[C@@H]1C[C@@H]2C[C@@H]2N1C(=O)[C@H](O)c1cccc(Cl)c1 [Example 70] is 36

Entry O=C(NCc1cc(Cl)ccc1-n1cnnn1)[C@@H]1[C@H]2C[C@H]2CN1C(=O)[C@H](O)c1cc(Cl)cc(OC(F)F)c1 [Example 36] , Human α-thrombin (Homo sapiens) data, IC50 value: 9

Form: item O=C(NCc1cc(Cl)ccc1-n1cnnn1)[C@@H]1[C@H]2C[C@H]2CN1C(=O)[C@H](O)c1cccc(Cl)c1 [Example 57] ; test system Human α-thrombin (Homo sapiens); IC50: 3

// molecule O=C([C@H](O)c1ccccc1)N1CC2CC1(C(=O)NCc1cc(Cl)ccc1-n1cnnn1)C2 [Example 30] , assay Human α-thrombin (Homo sapiens), IC50 value: 47

Item CC(C)(C)C[C@@H](N)C(=O)N1[C@H](C(=O)NCc2cc(Cl)ccc2-n2cnnn2)C[C@@H]2C[C@@H]21 [Example 20, hydrochloride] was tested on Human α-thrombin (Homo sapiens); the reported IC50 is 2

Item: O=C(NCc1cc(Cl)ccc1-n1cnnn1)[C@@H]1C[C@@H]2C[C@@H]2N1C(=O)C(O)Cn1cncn1 (some centres unmarked) [Example 51] | System: Human α-thrombin (Homo sapiens) | IC50: 420

Lab entry: Human α-thrombin (Homo sapiens) assay, molecule O=C([C@H](O)C1CCCCC1)N1CC2CC1(C(=O)NCc1cc(Cl)ccc1-n1cnnn1)C2 [Example 67] , IC50 = 85

Considering N[C@H](CC1CCCCC1)C(=O)N1CC2CC1(C(=O)NCc1cc(Cl)ccc1-n1cnnn1)C2 [Example 68, hydrochloride] , its IC50 with Human α-thrombin (Homo sapiens) was recorded as 4

Readout IC50 for N[C@H](CO)C(=O)N1[C@@H]2C[C@@H]2C[C@H]1C(=O)NCc1cc(Cl)ccc1-n1cnnn1 [Example 50, hydrochloride] , test system Human α-thrombin (Homo sapiens), was 2500

Noted IC50 for CC(C)(C)C[C@@H](O)C(=O)N1CC2CC1(C(=O)NCc1cc(Cl)ccc1-n1cnnn1)C2 [Example 28] , tested on Human α-thrombin (Homo sapiens): 6

Value (IC50, Human α-thrombin (Homo sapiens)) for record CC(C)(C1CC1)C(O)C(=O)N1[C@H](C(=O)NCc2cc(Cl)ccc2-n2cnnn2)C[C@@H]2C[C@@H]21 (some centres unmarked) [Example 33] = 10

Item: N[C@@H](C(=O)N1[C@H](C(=O)NCc2cc(Cl)ccc2-n2cnnn2)C[C@@H]2C[C@@H]21)c1ccccc1 [Example 43] | System: Human α-thrombin (Homo sapiens) | IC50: 5

* * *

biological target: Human α-thrombin (Homo sapiens, UniProt P00734)
Structures can show the parent of a compound that is named as a salt.
IC50 under 20 nM gets Y, anything at or over 20 nM gets N.

In plain terms, does N[C@@H](C(=O)N1[C@H](C(=O)NCc2cc(Cl)ccc2-n2cnnn2)C[C@@H]2C[C@@H]21)c1ccc(O)cc1 [Example 48, hydrochloride] come in under 20 nM for IC50?
N

In plain terms, does N[C@H](CO)C(=O)N1[C@H](C(=O)NCc2cc(Cl)ccc2-n2cnnn2)C[C@@H]2C[C@@H]21 [Example 49, hydrochloride] come in under 20 nM for IC50?
N

Field: below-cutoff. Rule: recorded IC50 strictly less than 20 nM. Subject: CC(C)(C)C[C@@H](N)C(=O)N1C[C@@H]2C[C@@H]2[C@H]1C(=O)NCc1cc(Cl)ccc1-n1cnnn1 [Example 18, hydrochloride]
Y

Please indicate whether the reported IC50 of O=C(NCc1cc(Cl)ccc1-n1cnnn1)[C@@H]1C[C@@H]2C[C@@H]2N1C(=O)C1(O)CCCc2ncccc21 (stereo partly drawn) [Example 76] is strictly below 20 nM.
Y

Could you please tell me whether IC50 recorded for CC(C)(C1CC1)C(O)C(=O)N1C[C@H]2C[C@H]2[C@H]1C(=O)NCc1cc(Cl)ccc1-n1cnnn1 (stereo partly drawn) is less than 20 nM?
Y

Is 20 nM strictly greater than the compound's reported IC50? compound: CC(C)(C)OC[C@@H](N)C(=O)N1[C@H](C(=O)NCc2cc(Cl)ccc2-n2cnnn2)C[C@@H]2C[C@@H]21 [Example 53, acetate]
Y
